Values from paper PMC6308234

# tested on: T1, DENV-1 nonstructural protein 1 (NS1), recombinant (Dengue virus 1, strain Nauru/West …, UniProt P17763)
# T1 construct: also called DENV-1 NS1; NS1 from DENV-1; source: bought: Native Antigen Company (recombinant)
# T1 sequence (P17763 776-1127): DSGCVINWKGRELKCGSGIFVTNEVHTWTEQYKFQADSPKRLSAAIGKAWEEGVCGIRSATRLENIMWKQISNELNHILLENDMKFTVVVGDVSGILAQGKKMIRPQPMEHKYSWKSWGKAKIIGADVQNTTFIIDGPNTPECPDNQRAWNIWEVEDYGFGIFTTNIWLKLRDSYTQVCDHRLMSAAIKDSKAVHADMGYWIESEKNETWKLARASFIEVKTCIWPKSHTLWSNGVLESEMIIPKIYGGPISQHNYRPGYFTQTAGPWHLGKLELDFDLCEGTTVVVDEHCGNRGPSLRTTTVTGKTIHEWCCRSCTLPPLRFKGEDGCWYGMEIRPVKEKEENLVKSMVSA
# assay method text: SPR
# assay setup: both partners purified
Kd strictly under 9 nM means true (1); at 9 nM or over means false (0).

Previously resolved entries follow.
sdAb DC4 (VHH, source: E. coli Turner (DE3), pET22b, periplasmic, purified (Ni-Sepharose, SEC)) VHH: EVQLQASGGGLVQAGGSLRLSCAASERTFSHYFVGWFRQAPGKEREFVARITWSGSNVEYEDAVKDRFTLSSDNAKNTVYLHMNSLKPEDTAVYYCAAANTIWTPTIRDYNVWGQGTQVTVSS
false (0)
sdAb DD6 (VHH, source: E. coli Turner (DE3), pET22b, periplasmic, purified (Ni-Sepharose, SEC)) VHH: EVQLQASGGGSVQAGGSLRLSCAHSSITVPDYTIGWYRRAPGKGGEEVSLISMHGGRTWYAGSVKGRFAISRDSVKNTVYLQMNNLKPEDTDIYYCGGTTFGLAAAPNEYDSWGQGSQVTVSS
true (1)
sdAb DD5 (VHH, source: E. coli Turner (DE3), pET22b, periplasmic, purified (Ni-Sepharose, SEC)) VHH: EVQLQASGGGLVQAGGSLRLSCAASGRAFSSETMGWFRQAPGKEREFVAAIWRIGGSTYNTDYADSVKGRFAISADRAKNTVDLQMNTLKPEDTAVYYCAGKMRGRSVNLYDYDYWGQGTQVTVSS
true (1)
sdAb DH12 (VHH, source: E. coli Turner (DE3), pET22b, periplasmic, purified (Ni-Sepharose, SEC)) VHH: EVQLVESGGGSVQAGGSLRLSCAASERTFSYYFMGWFRQAPGKEREWVARIRWNGDGADYTDAVKDRFTISSDHAKNTVYLQMNSLKPEDTAVYYCAAANSIWKPTTRDYNYWGQGTQVSVSS
false (0)
sdAb DH4 (VHH, source: E. coli Turner (DE3), pET22b, periplasmic, purified (Ni-Sepharose, SEC)) VHH: DVQLQASGGGVVQAGGSLRVSCAATGIAFASYAVAWYRQAPGKQREWVATVGGLGGTKYVDSVRGRFTISRDNAKNAVTLQMNSLKPEDTAVYYCAAVEWDDGHYYWDTWGQGTRVTVSA
false (0)

hey, is Kd for sdAb DD7 (VHH, source: E. coli Turner (DE3), pET22b, periplasmic, purified (Ni-Sepharose, SEC)) VHH: EVQLVQSGGGSVQAGGSLRLSCAHSSITVPDYTIGWFRRAPGKGGEEVSLISMHGGRSWYAGSVKGRFAISRDSVKNTVYLQMNNLKPEDTDIYYCGGTTFGLAAAPNEYDSWGQGSQVTVSS lower than 9 nM or not?
true (1)
